# Tested on: PXR:RXRa (NR concentration 270 nM, RXRa partner concentration 90 nM)
# PROTOCOL_DETAILS: PBM binding z-score (relative to random genomic background probes); higher = stronger binding; sequences stand for … in GC…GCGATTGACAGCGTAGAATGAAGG
Record Fulfilled whenever PBM binding z-score is at 3 or higher; record Not fulfilled when lower.

RESIDUE_CODES	TARGET_OR_SYSTEM	CAT
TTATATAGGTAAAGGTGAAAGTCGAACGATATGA	PXR:RXRa (NR concentration 270 nM, RXRa partner concentration 90 nM)	Not fulfilled
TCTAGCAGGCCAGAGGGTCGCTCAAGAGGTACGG	PXR:RXRa (NR concentration 270 nM, RXRa partner concentration 90 nM)	Not fulfilled
CCTAGCAGGCCAATCTGGGGCACTCAAGGCTTGA	PXR:RXRa (NR concentration 270 nM, RXRa partner concentration 90 nM)	Not fulfilled
TCTGCTAGGTCCACGATGGTCAGCTAATCTGCTA	PXR:RXRa (NR concentration 270 nM, RXRa partner concentration 90 nM)	Not fulfilled
CTACCAAGGTGAAAAAGGTCGTTGATTACTATTC	PXR:RXRa (NR concentration 270 nM, RXRa partner concentration 90 nM)	Not fulfilled
CCTAGCCGGCCAGGGTCACTCAAGCATTTCGCTT	PXR:RXRa (NR concentration 270 nM, RXRa partner concentration 90 nM)	Not fulfilled
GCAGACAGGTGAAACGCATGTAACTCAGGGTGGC	PXR:RXRa (NR concentration 270 nM, RXRa partner concentration 90 nM)	Not fulfilled
TCTATTAGTTGAAGGGCAACCGTCGAGTCCGTTT	PXR:RXRa (NR concentration 270 nM, RXRa partner concentration 90 nM)	Not fulfilled
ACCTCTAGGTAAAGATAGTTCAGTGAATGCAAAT	PXR:RXRa (NR concentration 270 nM, RXRa partner concentration 90 nM)	Not fulfilled
ACATGTAGGTTACATCCGGGTCATTCAGGCTATG	PXR:RXRa (NR concentration 270 nM, RXRa partner concentration 90 nM)	Fulfilled
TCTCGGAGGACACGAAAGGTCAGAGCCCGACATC	PXR:RXRa (NR concentration 270 nM, RXRa partner concentration 90 nM)	Fulfilled
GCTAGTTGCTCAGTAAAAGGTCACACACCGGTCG	PXR:RXRa (NR concentration 270 nM, RXRa partner concentration 90 nM)	Fulfilled
ATATGTAGGTTGAGGGTCATTCAGGTTGGTTCGC	PXR:RXRa (NR concentration 270 nM, RXRa partner concentration 90 nM)	Fulfilled
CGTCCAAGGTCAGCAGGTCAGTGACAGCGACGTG	PXR:RXRa (NR concentration 270 nM, RXRa partner concentration 90 nM)	Fulfilled
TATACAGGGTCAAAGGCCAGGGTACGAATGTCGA	PXR:RXRa (NR concentration 270 nM, RXRa partner concentration 90 nM)	Fulfilled
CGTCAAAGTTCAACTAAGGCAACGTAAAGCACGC	PXR:RXRa (NR concentration 270 nM, RXRa partner concentration 90 nM)	Fulfilled
TCTTGTAGTTCAAAGGTTAAGAAAGCCGAAGCCT	PXR:RXRa (NR concentration 270 nM, RXRa partner concentration 90 nM)	Fulfilled
TAGTCTAGGTCATTCAGGGGCCAGTATAGAAAGC	PXR:RXRa (NR concentration 270 nM, RXRa partner concentration 90 nM)	Not fulfilled
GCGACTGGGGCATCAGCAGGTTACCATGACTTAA	PXR:RXRa (NR concentration 270 nM, RXRa partner concentration 90 nM)	Not fulfilled
CGTCCAAGGTCAGAGAGGTCAGGGAATGCCGAGT	PXR:RXRa (NR concentration 270 nM, RXRa partner concentration 90 nM)	Fulfilled
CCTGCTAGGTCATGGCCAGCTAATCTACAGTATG	PXR:RXRa (NR concentration 270 nM, RXRa partner concentration 90 nM)	Not fulfilled
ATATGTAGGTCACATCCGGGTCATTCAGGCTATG	PXR:RXRa (NR concentration 270 nM, RXRa partner concentration 90 nM)	Fulfilled
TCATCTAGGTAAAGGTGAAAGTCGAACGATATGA	PXR:RXRa (NR concentration 270 nM, RXRa partner concentration 90 nM)	Not fulfilled
ACTATTAGTTGACTTACGGCAACCGATACGACGC	PXR:RXRa (NR concentration 270 nM, RXRa partner concentration 90 nM)	Not fulfilled
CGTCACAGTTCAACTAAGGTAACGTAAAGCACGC	PXR:RXRa (NR concentration 270 nM, RXRa partner concentration 90 nM)	Fulfilled
CAGCCTAGGTCAGGGCCACTATAGGAGGAACGTT	PXR:RXRa (NR concentration 270 nM, RXRa partner concentration 90 nM)	Not fulfilled

* * *

# Tested on: RARa:RXR (NR concentration 270 nM, RXRa partner concentration 90 nM)
# PROTOCOL_DETAILS: PBM binding z-score (relative to random genomic background probes); higher = stronger binding; sequences stand for … in GC…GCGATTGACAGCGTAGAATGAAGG
QUANTITY_KIND: PBM binding z-score

RESIDUE_CODES	QUANTITY_KIND	RESULT_NUMBER
CAAACTAGGTCAAAGGTCCAAGTCGAGCCAACCA	PBM binding z-score	5.03
GGAACGAGGGCAGTCGAGTTGATAGCATGGCGAT	PBM binding z-score	-0.0532
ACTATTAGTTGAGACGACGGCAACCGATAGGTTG	PBM binding z-score	-0.302
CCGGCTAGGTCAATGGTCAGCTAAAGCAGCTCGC	PBM binding z-score	1.75
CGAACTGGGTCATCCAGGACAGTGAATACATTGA	PBM binding z-score	3.11
CCGAGTAGGTTCTGGGGCATTCAGGCAACGGTGA	PBM binding z-score	-0.69
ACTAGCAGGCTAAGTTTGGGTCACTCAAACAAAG	PBM binding z-score	1.31
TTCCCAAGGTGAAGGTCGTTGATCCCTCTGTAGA	PBM binding z-score	1.78
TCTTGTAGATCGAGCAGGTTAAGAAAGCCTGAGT	PBM binding z-score	0.496
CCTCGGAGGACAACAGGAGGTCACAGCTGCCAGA	PBM binding z-score	4.69
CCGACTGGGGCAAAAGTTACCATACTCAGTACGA	PBM binding z-score	-0.0334
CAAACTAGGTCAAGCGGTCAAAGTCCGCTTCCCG	PBM binding z-score	3.33
TCATATAGGAAAACAGGTGAAAGTCCGTAAGTTA	PBM binding z-score	1.14
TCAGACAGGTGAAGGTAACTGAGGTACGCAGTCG	PBM binding z-score	0.874
CGTCCAAGGTCAGAGGTCAGTGAAGAGATGACGG	PBM binding z-score	7.11
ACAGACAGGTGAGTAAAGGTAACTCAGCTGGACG	PBM binding z-score	1.06
TCTAGCAGGCCAGAGGGCCACTCAAGAGGTACGG	PBM binding z-score	-0.732
TCTATTAGTGGAAGGGCAACCGACGAGTCCGTTT	PBM binding z-score	0.778
CTCGAAAGGACGGTTGAGGTGAGTATACGGATAA	PBM binding z-score	0.512
CAAACTAGGTCACCGGAAGGTCAAAGTCCGCATG	PBM binding z-score	6.98
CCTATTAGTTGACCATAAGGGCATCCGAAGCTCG	PBM binding z-score	0.903
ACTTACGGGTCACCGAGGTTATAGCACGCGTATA	PBM binding z-score	6.06
TCTGGTAGGTCAGTTGGTCAGCTAACGAGCTGCC	PBM binding z-score	0.778
TAGCCTATGTCATGGGCCAGTATACCACGCGAAC	PBM binding z-score	0.249
CTCGAAAGGTCCGTTGAGGTGAGTATACGGATAA	PBM binding z-score	0.322
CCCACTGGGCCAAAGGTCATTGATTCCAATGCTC	PBM binding z-score	6.34

* * *

# Tested on: RARg:RXRa (NR concentration 270 nM, RXRa partner concentration 90 nM)
# PROTOCOL_DETAILS: PBM binding z-score (relative to random genomic background probes); higher = stronger binding; sequences stand for … in GC…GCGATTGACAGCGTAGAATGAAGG
Label satisfied when PBM binding z-score >= 3; otherwise not satisfied.

RESIDUE_CODES	CAT
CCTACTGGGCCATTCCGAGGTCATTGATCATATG	satisfied
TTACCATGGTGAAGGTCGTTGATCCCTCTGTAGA	not satisfied
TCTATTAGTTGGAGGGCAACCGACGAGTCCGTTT	not satisfied
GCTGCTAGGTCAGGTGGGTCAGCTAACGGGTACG	satisfied
GCAGACAGGTGAAACTCAGGTAACTCAGGGTGGC	not satisfied
TAGCCTAGGTCATTGGGCCAGTCTAGTACGCATC	satisfied
ATATGTACGTTAAGGGTCATTCAGGTTGGTTCGC	satisfied
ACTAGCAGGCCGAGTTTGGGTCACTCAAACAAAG	not satisfied
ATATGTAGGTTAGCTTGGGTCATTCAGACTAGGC	not satisfied
TGAATGAGGTTATAGATCAGGGAACGTGGCGTCG	not satisfied
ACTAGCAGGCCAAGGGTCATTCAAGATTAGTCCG	satisfied
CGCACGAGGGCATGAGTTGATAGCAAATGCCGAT	not satisfied
